This collection of values is drawn from patent US20250177396A1.

# Target Desc: UniProt O00444
# Sequence (O00444 1-970): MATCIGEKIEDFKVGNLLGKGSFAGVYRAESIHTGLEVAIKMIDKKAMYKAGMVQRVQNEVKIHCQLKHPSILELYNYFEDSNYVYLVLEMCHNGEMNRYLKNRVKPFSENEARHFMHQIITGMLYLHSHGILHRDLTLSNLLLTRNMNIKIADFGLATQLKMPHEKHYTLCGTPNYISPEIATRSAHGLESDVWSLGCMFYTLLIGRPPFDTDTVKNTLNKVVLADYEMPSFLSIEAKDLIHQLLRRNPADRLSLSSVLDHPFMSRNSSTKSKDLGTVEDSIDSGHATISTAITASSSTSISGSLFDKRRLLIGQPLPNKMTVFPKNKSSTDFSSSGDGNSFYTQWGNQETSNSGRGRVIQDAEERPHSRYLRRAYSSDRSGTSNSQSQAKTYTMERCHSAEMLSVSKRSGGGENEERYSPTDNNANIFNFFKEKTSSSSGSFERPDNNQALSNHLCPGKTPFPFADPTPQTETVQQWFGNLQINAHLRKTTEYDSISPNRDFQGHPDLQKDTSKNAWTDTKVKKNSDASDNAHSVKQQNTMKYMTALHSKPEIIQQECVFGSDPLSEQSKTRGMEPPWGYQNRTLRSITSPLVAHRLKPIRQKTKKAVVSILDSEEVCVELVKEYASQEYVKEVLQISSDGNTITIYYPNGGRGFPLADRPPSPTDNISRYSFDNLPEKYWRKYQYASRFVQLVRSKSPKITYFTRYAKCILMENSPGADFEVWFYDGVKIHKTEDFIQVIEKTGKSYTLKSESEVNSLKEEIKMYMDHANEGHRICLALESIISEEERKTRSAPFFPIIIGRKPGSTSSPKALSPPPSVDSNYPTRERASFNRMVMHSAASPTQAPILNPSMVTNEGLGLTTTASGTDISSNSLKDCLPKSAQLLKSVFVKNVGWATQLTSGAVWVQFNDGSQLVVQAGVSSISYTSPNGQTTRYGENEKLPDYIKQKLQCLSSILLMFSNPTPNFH
# Assay Protocol: PLK4 NanoBRET target engagement assay
# Condition Details: HEK293 T cells transfected with PLK4 NanoLuc fusion vector; K-5 tracer; 2 hrs incubation
Reported Endpoint: IC50 (nM)

The cases that follow already have their IC50 on record.
• COc1c(Nc2cc(C)[nH]n2)nc(N(C)c2ccc(Cn3ccnc3)cc2F)nc1-c1cnn(C)c1 = 59
• COc1nn(C)cc1-c1nc(N(C)c2c(F)cc(S(C)(=O)=O)cc2F)nc(Nc2cc(C)[nH]n2)c1C1CC1 = 5
• [2H]C([2H])([2H])n1ncc(-c2nc(N(C)c3c(F)cc(S(C)(=O)=O)cc3F)nc(Nc3cc(C)[nH]n3)c2C2CC2)c1C = 8

a. Cc1cc(Nc2nc(N(C)c3c(F)cc(S(C)(=O)=O)cc3F)nc(-n3ccccc3=O)c2C2CC2)n[nH]1
b. Cc1cc(Nc2nc(N(C)c3c(F)cc(S(C)(=O)=O)cc3F)nc(-c3c[nH]cn3)c2C2CC2)n[nH]1
c. Cc1cc(Nc2nc(N(C)c3c(F)cc(S(C)(=O)=O)cc3F)nc(-c3cn(C(CO)CO)nc3C)c2C2CC2)n[nH]1
d. Cc1cc(Nc2nc(N(C)c3ccc(S(C)(=O)=O)cc3F)cc(-c3cnn(C)c3)c2C2CC2)n[nH]1 [Compound 93]
Please give the order of these compounds when sorted by IC50, largest value leading. Note for the reader: the ranking is given by listing the labels in the order requested. a, d, c, b
(a: 1100 nM, d: 78 nM, c: 38 nM, b: 9 nM)
